- Test system: Corynebacterium xerosis
- experimentSummary: Antibacterial activity against Corynebacterium xerosis FF
- Type: functional
measurementType: MIC (µg/mL)

Return the recorded MIC value; entry: CC(=O)O[C@H]1C[C@@]2(C)[C@@H](C[C@@H](O)[C@H]3[C@@]4(C)CC[C@@H](O)[C@@H](C)[C@@H]4CC[C@@]32C)/C1=C(\CCC=C(C)C)C(=O)O
0.016

(P) CC(=O)O[C@H]1C[C@@]2(C)[C@@H](C[C@@H](O)[C@H]3[C@@]4(C)CC[C@@H](O)[C@@H](C)C4CC[C@@]32C)/C1=C(\CCCCc1ccc(C(=O)c2ccccc2)cc1)C(=O)O (some centres undefined)
(Q) CC(=O)O[C@H]1C[C@@]2(C)[C@@H](C[C@@H](O)[C@H]3[C@@]4(C)CC[C@@H](O)[C@@H](C)C4CC[C@@]32C)/C1=C(\CCCCc1ccc(C2(C(F)(F)F)N=N2)cc1)C(=O)O (some centres undefined)
Kindly identify the item with the lower MIC figure among these two: P and Q Give the label of your selection.
P
